- ASSAY REMARKS: Cmax in high cholesterol diet fed Sprague-Dawley rat at 0.3 mg/kg, po
- Assay type: ADME, organism-based
- Design: dose 0.3 mg/kg, route oral
- CONDITION PARAMETERS: in vivo
MEASURE NAME: Cmax
Number first, unit second.

input: Indicate its recorded Cmax; the compound in question is `CCN1C(=O)CC(C)(C)c2cc(C)c(-c3cc(/C=C/C(=O)O)ccc3OCC(F)(F)F)cc21`
output: 61 ng/mL

----------
- ASSAY REMARKS: Activity at RXR-PPARgamma heterodimer in primary human preadipocytes assessed as induction of adipocytes fatty acid binding protein by bDNA assay
- Type: cell-based
MEASURE NAME: EC50 (nM)
Report the value in nM with no unit label.

Here's what some known entries look like.
CCCN1C(=O)CC(C)(C)c2cc(C)c(-c3cc(/C=C/C(=O)O)ccc3OC(F)(F)F)cc21    131
CCN1C(=O)CC(C)(C)c2cc(C)c(-c3cc(/C=C4\SC(=O)NC4=O)ccc3OC(F)(F)F)cc21    139

Read the next record carefully.
input: Indicate its recorded EC50; the compound in question is `Cc1cc2c(cc1-c1cc(/C=C/C(=O)O)ccc1OC(F)(F)F)N(CC(F)(F)F)C(=O)CC2(C)C`
output: 126

----------
- ASSAY REMARKS: Oral bioavailability in Sprague-Dawley rat at 3 mg/kg
- Assay type: ADME, organism-based
- CONDITION PARAMETERS: in vivo
MEASURE NAME: bioavailability (%)
Report the value in % with no unit label.

input: Indicate its recorded bioavailability; the molecule in question is `CCN1C(=O)CC(C)(C)c2cc(C)c(-c3cc(/C=C/C(=O)O)ccc3OCC(F)(F)F)cc21`
output: 51

----------
- ASSAY REMARKS: Cmax in high cholesterol diet fed Sprague-Dawley rat at 10 mg/kg, po
- Type: ADME, organism-based
- Set-up: dose 10 mg/kg, route oral
- CONDITION PARAMETERS: in vivo
MEASURE NAME: Cmax (ng/mL)
Report the value in ng/mL with no unit label.

input: Indicate its recorded Cmax; the molecule in question is `CCN1C(=O)CC(C)(C)c2cc(C)c(-c3cc(/C=C/C(=O)O)ccc3OCC(F)(F)F)cc21`
output: 2120

----------
- TARGET SYSTEM: UniProt:P19793
- Sequence (whole entry): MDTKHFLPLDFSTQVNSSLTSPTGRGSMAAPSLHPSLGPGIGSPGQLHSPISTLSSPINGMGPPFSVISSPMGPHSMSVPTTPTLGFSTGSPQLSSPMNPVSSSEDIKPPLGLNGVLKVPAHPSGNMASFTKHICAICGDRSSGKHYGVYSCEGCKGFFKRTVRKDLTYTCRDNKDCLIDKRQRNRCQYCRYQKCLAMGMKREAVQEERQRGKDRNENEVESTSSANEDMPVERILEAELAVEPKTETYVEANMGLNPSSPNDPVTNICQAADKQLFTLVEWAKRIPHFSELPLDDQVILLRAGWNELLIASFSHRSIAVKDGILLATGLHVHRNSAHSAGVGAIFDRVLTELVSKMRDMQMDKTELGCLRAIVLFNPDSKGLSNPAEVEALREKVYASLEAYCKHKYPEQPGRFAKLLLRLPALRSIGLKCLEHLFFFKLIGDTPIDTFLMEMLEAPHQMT
- ASSAY REMARKS: Activity at RXRalpha by GAL4DNA cotransfection assay relative to 5-((3-(1-ethyl-4,4,6-trimethyl-2-oxo-1,2,3,4-tetrahydroquinolin-7-yl)-4-(trifluoromethoxy)phenyl)methylene)thiazolidine-2,4-dione
Here the recorded Activity is given for each entry.
Report the value in % with no unit label.

Here's what some known entries look like.
CCn1c(=O)c2c(c3cc(-c4cc(/C=C/C(=O)O)ccc4OC(F)(F)F)ccc31)CCC2    125
Cc1cc2c(cc1-c1cc(/C=C/C(=O)O)ccc1OCC(F)(F)F)N(C(C)C)C(=O)CC2(C)C    64

input: Indicate its recorded Activity; the molecule in question is `CCCN1C(=O)CC(C)(C)c2cc(C)c(-c3cc(/C=C/C(=O)O)ccc3OC(F)(F)F)cc21`
output: 83

input: Indicate its recorded Activity; the molecule in question is `CCN1C(=O)C(C)(C)Oc2cc(C)c(-c3cc(/C(C)=C/C(=O)O)ccc3OC(F)(F)F)cc21`
output: 86

input: Indicate its recorded Activity; the molecule in question is `Cc1cc2c(cc1-c1cc(/C=C/C(=O)O)ccc1OC(F)(F)F)N(CC(F)(F)F)C(=O)CC2(C)C`
output: 94

input: Indicate its recorded Activity; the molecule in question is `CCN1C(=O)CC(C)(C)c2cc(C)c(-c3cc(/C=C/C(=O)O)ccc3OCC(F)(F)F)cc21`
output: 76

input: Indicate its recorded Activity; the molecule in question is `CCN1C(=O)C(C)(C)Oc2cc(C)c(-c3cc(/C=C/C(=O)O)ccc3OC(F)(F)F)cc21`
output: 78
